Target: T1, TRBP (human, UniProt Q15633 1-366)
T1 sequence: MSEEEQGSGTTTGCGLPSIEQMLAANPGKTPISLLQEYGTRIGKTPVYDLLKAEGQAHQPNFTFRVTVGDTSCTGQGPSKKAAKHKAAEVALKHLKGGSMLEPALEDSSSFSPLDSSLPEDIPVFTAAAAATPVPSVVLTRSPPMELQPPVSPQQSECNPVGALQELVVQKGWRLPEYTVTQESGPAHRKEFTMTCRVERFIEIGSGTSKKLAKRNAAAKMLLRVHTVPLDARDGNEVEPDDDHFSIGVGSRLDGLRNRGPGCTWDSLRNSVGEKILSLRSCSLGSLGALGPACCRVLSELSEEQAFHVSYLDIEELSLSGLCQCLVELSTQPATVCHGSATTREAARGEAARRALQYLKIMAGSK
Experiment: filter binding
Measurement Name: Kd (nM)
Answers are plain numbers, in nM.

Challenge: I have this binder here, pre-let-7a (structured_RNA) RNA: UGAGGUAGUAGGUUGUAUAGUUUUAGGGUCACACCCACCACUGGGAGAUAACUAUACAAUCUACUGUCUUACC , and I need its recorded Kd.
Response given: 1.3
